test system: UACC-257; assay: NCI tumour cell line growth inhibition, 48 h
Activity calls are given as the source filed them. Rule as the data show it: active = GI50 up to about 1.1 µM and inactive = higher.
Respond with a class label; see YES = active, NO = inactive

{"compound": "O=C(O)C1Cc2c([nH]c3ccccc23)C=N1 (configuration not stated)", "category": "NO"}
{"compound": "CC1CC2=Nc3ccccc3NC(c3ccccc3)C2=C(O)O1 (configuration not stated)", "category": "NO"}
{"compound": "C1COCCN1.S=C(S)N1CCOCC1", "category": "NO"}
{"compound": "CN(c1nc(=[N+](C)C)ss1)C1CCCCC1", "category": "NO"}
{"compound": "CSc1c(C#N)c(N)nc2c(/N=N\\c3ccc(Cl)cc3)c(N)nn12", "category": "NO"}

Query string: Hi team, can someone confirm the assay call for NC(=O)CC(/N=C1\C(=O)OC(C(O)CO)\C1=N/C(CC(N)=O)C(=O)O)C(=O)O (configuration not stated) ?
Result string: NO

Query string: Hi team, can someone confirm the assay call for CCC(=O)ONC(=O)Cn1ccc([N+](=O)[O-])n1 ?
Result string: NO

Query string: Hi team, can someone confirm the assay call for O=C(O)Cc1cccc2c(=O)c3cccc([N+](=O)[O-])c3[nH]c12 ?
Result string: NO

Query string: Hi team, can someone confirm the assay call for CCC(C(C)N1CC(=O)NC(=O)C1)N1CC(=O)NC(=O)C1 (configuration not stated) ?
Result string: NO

Query string: Hi team, can someone confirm the assay call for O=C(O)Cc1ccc2nc(COC(=O)c3ccccc3)sc2c1 ?
Result string: NO

Query string: Hi team, can someone confirm the assay call for O=S(=O)(OI(O)CC(F)(F)F)C(F)(F)F ?
Result string: NO

Query string: Hi team, can someone confirm the assay call for CC(=O)c1sc2c(c1OC(=O)c1ccc(Cl)cc1Cl)c(=O)n(-c1ccccc1)c(=S)n2-c1ccccc1 ?
Result string: NO

Query string: Hi team, can someone confirm the assay call for COc1ccc(C(c2cc(OC)c(OC)c(OC)c2)N2C(=O)CCC2C(=O)O)cc1 (configuration not stated) ?
Result string: NO
